- Test system: SR
- experimental-details: NCI tumour cell line growth inhibition, 48 h
Activity calls are given as the source filed them. Rule as the data show it: active = GI50 up to about 1.1 µM and inactive = higher.
Outcome codes: YES (active), NO (inactive)

[[record]]
compound = "CCOC(=O)c1c(CN2CCOCC2)n(Cc2ccccc2)c2c1cc(O)c1nc(C)c(C)nc12"
tested_system = "SR"
group = "NO"

[[record]]
compound = "O=C1OC(c2ccccc2)=N/C1=C/NC(Cc1c[nH]cn1)C(=O)O (configuration not stated)"
tested_system = "SR"
group = "NO"

[[record]]
compound = "CCOC(=O)c1c(C)n(-c2ccc(C)cc2)c2c1cc(O)c1[nH]c3c(c12)CCCC3"
tested_system = "SR"
group = "YES"

[[record]]
compound = "C#CCn1ncc2c(SCc3ccccc3)ncnc21"
tested_system = "SR"
group = "NO"

[[record]]
compound = "CC(=O)c1ccc(Nc2c3ccccc3nc3occc23)cc1"
tested_system = "SR"
group = "YES"

[[record]]
compound = "COc1ccc2c(c1)c(Cc1c(C)n(C)c3ccc(OC)cc13)c(C)n2C"
tested_system = "SR"
group = "NO"

[[record]]
compound = "C=CCOC(=O)CC[C@H](NC(=O)[C@@H](CCC(F)(F)F)Cc1ccc(O)cc1)C(=O)OCC=C"
tested_system = "SR"
group = "NO"

[[record]]
compound = "COc1cc2ccnc3c2c(c1OC)N(C)C=C3"
tested_system = "SR"
group = "NO"

[[record]]
compound = "COc1ccc(C2C(C(=O)c3ccccc3)=C(O)C(O)(CC(=O)c3ccccc3)N2c2ccc(OC)cc2)cc1 (configuration not stated)"
tested_system = "SR"
group = "NO"

[[record]]
compound = "O=C1CC(c2ccccc2)n2c(nc3ccccc32)N1 (configuration not stated)"
tested_system = "SR"
group = "NO"

[[record]]
compound = "CCO[C@H]1O[C@@H]2OC3(C)CCC4[C@H](C)CCC([C@H]1C)[C@]42OO3 (some centres not stated)"
tested_system = "SR"
group = "NO"

[[record]]
compound = "CC(=O)c1cccn1/C=C(\\OC(=O)OC(C)(C)C)c1ccc[nH]1"
tested_system = "SR"
group = "NO"

[[record]]
compound = "O=C1CS(=O)(=O)C(c2cccc(Oc3ccccc3)c2)N1c1ccc(Cl)cc1 (configuration not stated)"
tested_system = "SR"
group = "NO"

[[record]]
compound = "CC(=O)OC(C)c1cc2c(s1)C(=O)c1scc(C(C)OC(C)=O)c1C2=O (configuration not stated)"
tested_system = "SR"
group = "YES"

[[record]]
compound = "CCn1c2ccccc2c2cc(NC(=O)c3c(C)[nH]c(=O)[nH]c3=S)ccc21"
tested_system = "SR"
group = "NO"

[[record]]
compound = "COc1ccc2c(c1)C(=O)CCc1cc(OC)c(OC)c(OC)c1-2"
tested_system = "SR"
group = "YES"

[[record]]
compound = "O=C(CC1Sc2ccccc2NC1=O)Nc1cccc(Cl)c1 (configuration not stated)"
tested_system = "SR"
group = "NO"


---

- System: Hs-578T
- experimental-details: NCI tumour cell line growth inhibition, 48 h
The source made the active and inactive calls. No stated cut-off is given here; in the data, active = GI50 up to about 1.1 µM and inactive = higher.
endpoint: GI50

[[record]]
molecule = "CN(O)C(=S)c1ccccc1"
value = "> 20.2 µM (inactive)"

[[record]]
molecule = "C=C1C[C@@H](O)[C@@H](Br)C(C)(C)[C@@]12C=CC(O)(CBr)CC2 (some centres undefined)"
value = "45.6 µM (inactive)"

[[record]]
molecule = "CC/C(Cl)=N\\OC(=O)Nc1ccc(OC)c(C)c1"
value = "16.9 µM (inactive)"

[[record]]
molecule = "COc1ccc2c(C)c(Oc3c(Cl)c(Cl)c(O)c(C#N)c3C#N)oc2c1"
value = "> 100 µM (inactive)"


---

Parameter: GI50. Scope: all listed entries.
- Test system: HT-29
- experimental-details: NCI tumour cell line growth inhibition, 48 h
The source made the active and inactive calls. Rule as the data show it: active = GI50 up to about 1.1 µM and inactive = higher.
endpoint: GI50

[[record]]
compound = "CCCCCCCC/C=C\\CCCCCCCCCCCC(=O)O [ERUCIC ACID]"
tested_system = "HT-29"
endpoint = "GI50"
value = "43.8 µM (inactive)"

[[record]]
compound = "C=C1CCCC(C)(C)C1CCC1(C)CCC(C(C)C(=O)OC)OO1 (centres undefined)"
tested_system = "HT-29"
endpoint = "GI50"
value = "2.04 µM (inactive)"

[[record]]
compound = "N#Cc1cc(C#N)c(N)nc1N"
tested_system = "HT-29"
endpoint = "GI50"
value = "> 100 µM (inactive)"

[[record]]
compound = "Cc1cc(Cl)nc(Nc2nc3ccccc3[nH]2)n1"
tested_system = "HT-29"
endpoint = "GI50"
value = "> 100 µM (inactive)"

[[record]]
compound = "CCOC(=O)NC(=O)c1cn(CCOC(=O)NCCCCCCNC(=O)OCCn2cc(C(=O)NC(=O)OCC)c(=O)[nH]c2=O)c(=O)[nH]c1=O"
tested_system = "HT-29"
endpoint = "GI50"
value = "> 100 µM (inactive)"

[[record]]
compound = "NNc1nc2ccccc2s1"
tested_system = "HT-29"
endpoint = "GI50"
value = "> 100 µM (inactive)"

[[record]]
compound = "CC(C)(C)OC(=O)CN1C(=O)CC1CC(=O)c1ccccc1 (centres undefined)"
tested_system = "HT-29"
endpoint = "GI50"
value = "17.2 µM (inactive)"

[[record]]
compound = "O=C(O)c1cc(N(Cc2ccccc2O)Cc2cc(O)ccc2O)ccc1O [LAVENDUSTIN A]"
tested_system = "HT-29"
endpoint = "GI50"
value = "> 100 µM (inactive)"

[[record]]
compound = "CC(C)(C)C1=CC(=C(P(=O)(O)O)P(=O)(O)O)C=C(C(C)(C)C)C1=O"
tested_system = "HT-29"
endpoint = "GI50"
value = "> 50 µM (inactive)"

[[record]]
compound = "CC(C)CC(NC=O)C(=O)NC(Cc1ccccc1)NC(=O)CNC(=O)C(C)NC(=O)OC(C)(C)C (centres undefined)"
tested_system = "HT-29"
endpoint = "GI50"
value = "> 100 µM (inactive)"

[[record]]
compound = "CC(C)n1c(=O)c2nn3c(=O)n(C(C)C)c(=O)c3nn2c1=O"
tested_system = "HT-29"
endpoint = "GI50"
value = "> 100 µM (inactive)"

[[record]]
compound = "C=C1c2c(n(S(=O)(=O)c3ccccc3)c3ccccc23)[C@@]2(C(=O)OC)CC3C=CC2N1C3"
tested_system = "HT-29"
endpoint = "GI50"
value = "> 100 µM (inactive)"

[[record]]
compound = "COC(=O)c1c(C(=O)OC)c(-c2ccccc2)n(-c2ccccc2)c(=O)c1-c1ccccc1"
tested_system = "HT-29"
endpoint = "GI50"
value = "> 100 µM (inactive)"

[[record]]
compound = "Cc1cccc(NC(=O)/C=C/c2ccc([N+](=O)[O-])cc2)c1"
tested_system = "HT-29"
endpoint = "GI50"
value = "35 µM (inactive)"


---

- Tested on: EKVX
- experimental-details: NCI tumour cell line growth inhibition, 48 h
The source made the active and inactive calls. No stated cut-off is given here; in the data, active = GI50 up to about 1.1 µM and inactive = higher.
Outcome codes: Y = active, N = inactive

[[record]]
compound = "COC(=O)[C@@H]1CC(C(CN)c2cn(C(=O)OC(C)(C)C)c3ccccc23)C(=O)N1C(=O)OC(C)(C)C (some centres not stated)"
group = "N"

[[record]]
compound = "CC(C)(C)N(Cc1ccccc1)C(=O)/C=C\\[S+]([O-])c1ccccc1 (configuration not stated)"
group = "N"

[[record]]
compound = "COc1cc(/C=C/C(=O)c2sc(-n3nc(-c4ccccc4)cc3-c3ccccc3)nc2C)ccc1O"
group = "N"

[[record]]
compound = "Nc1ccccc1/C(O)=C1/CCOC1=O"
group = "N"

[[record]]
compound = "O=C(O)C[S+]([O-])c1ccc2c3c(cccc13)C(=O)c1ccccc1-2 (configuration not stated)"
group = "N"

[[record]]
compound = "CC(C)(C)C1=CC(=C(P(=O)(O)O)P(=O)(O)O)C=C(C(C)(C)C)C1=O"
group = "N"

[[record]]
compound = "Cc1cc(C)c(C(=O)OC(c2ccccc2)C(c2ccccc2)N2CCOCC2)c(C)c1 (configuration not stated)"
group = "N"

[[record]]
compound = "CCCCc1ccc(-n2sc3ncc([N+](=O)[O-])cc3c2=O)cc1"
group = "N"

[[record]]
compound = "CC(C)OC(=O)Nc1c([N+](=O)[O-])cc(C(F)(F)F)cc1[N+](=O)[O-]"
group = "N"

[[record]]
compound = "Cc1cc2c(=O)cc(-c3ccc(O)cc3)oc2c(C(=O)O)c1C"
group = "N"

[[record]]
compound = "O/N=N/c1ccccn1.OCC1OC2OC3C(CO)OC(OC4C(CO)OC(OC5C(CO)OC(OC6C(CO)OC(OC7C(CO)OC(OC1C(O)C2O)C(O)C7O)C(O)C6O)C(O)C5O)C(O)C4O)C(O)C3O (configuration not stated)"
group = "N"

[[record]]
compound = "CCCOC(=O)C1C2CCC(O2)C1C(=O)O (configuration not stated)"
group = "N"

[[record]]
compound = "C=Cc1ccccc1C1(O)C=CC(OC)(OC)C=C1"
group = "N"

[[record]]
compound = "Oc1ncnc2c1nnn2CCCn1nnc2c(O)ncnc21"
group = "N"

[[record]]
compound = "COc1ccc(-c2nc(SCC(=O)N/N=C/c3ccc([N+](=O)[O-])cc3)[nH]c2-c2ccc(OC)cc2)cc1"
group = "N"

[[record]]
compound = "CN1CCc2c1nc(-c1ccc(Cl)cc1)c1c2N(C)CC1"
group = "N"

[[record]]
compound = "CS(=O)(=O)c1nc(Cl)c(Cl)c(C#N)c1Cl"
group = "N"

[[record]]
compound = "C=C1CC2(CCCC3(CC(=C)C(=O)O3)C2(C)C)OC1=O (configuration not stated)"
group = "N"

[[record]]
compound = "COc1ccccc1N=C(S)Nc1ccccn1"
group = "N"

[[record]]
compound = "Cc1[nH]n(-c2nc3c(c(=O)[nH]2)CCCC3)c(=O)c1CCO"
group = "N"

[[record]]
compound = "COc1ccc(/C=C2\\NC(=S)N(CN3CCCCC3)C2=O)cc1"
group = "N"

[[record]]
compound = "N#C/N=C1/c2ccccc2/C(=N/C#N)c2cc(CO)ccc21"
group = "N"

[[record]]
compound = "COc1ccc2c(c1)C(=O)CCc1cc(OC)c(OC)c(OC)c1-2"
group = "Y"

[[record]]
compound = "CC(=C\\c1ccccc1)/C=C(\\C#N)C(N)=O"
group = "N"

[[record]]
compound = "COc1ccc(-n2c(N)c(C#N)[nH]c2=O)cc1"
group = "N"

[[record]]
compound = "COc1cc(C(C)O)c[n+](Cc2ccccc2)c1 (configuration not stated)"
group = "N"

[[record]]
compound = "O=C(CSCC(=O)N/N=C\\c1ccc(-c2ccccc2)cc1)N/N=C\\c1ccc(-c2ccccc2)cc1"
group = "N"

